Entries and their IC50 (average), PAD4 citrullination of peptide …, RapidFire MS
target: recombinant human PAD4 (human, UniProt Q9UM07 1-663); assay: cell-based or functional assay
Sequence (Q9UM07 whole entry): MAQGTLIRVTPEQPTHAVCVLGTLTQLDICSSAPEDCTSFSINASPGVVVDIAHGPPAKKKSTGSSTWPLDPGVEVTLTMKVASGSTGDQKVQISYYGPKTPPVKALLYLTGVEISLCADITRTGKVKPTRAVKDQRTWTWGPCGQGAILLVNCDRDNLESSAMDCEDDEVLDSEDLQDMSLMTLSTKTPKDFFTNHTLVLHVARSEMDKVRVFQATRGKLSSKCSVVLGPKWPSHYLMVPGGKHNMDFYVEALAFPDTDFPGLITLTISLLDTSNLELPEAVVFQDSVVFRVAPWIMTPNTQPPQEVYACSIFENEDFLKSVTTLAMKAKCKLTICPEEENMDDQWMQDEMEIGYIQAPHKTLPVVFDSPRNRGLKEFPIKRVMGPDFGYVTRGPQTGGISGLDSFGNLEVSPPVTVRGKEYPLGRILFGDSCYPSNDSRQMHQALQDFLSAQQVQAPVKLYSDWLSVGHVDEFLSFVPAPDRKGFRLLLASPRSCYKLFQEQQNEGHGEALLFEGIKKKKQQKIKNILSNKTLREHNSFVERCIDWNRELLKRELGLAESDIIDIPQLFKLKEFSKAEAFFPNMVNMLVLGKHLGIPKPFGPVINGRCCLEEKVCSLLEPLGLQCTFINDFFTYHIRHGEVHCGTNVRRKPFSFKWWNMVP
Value expressed in nM; do not type the unit.

Using the record for hz20-5 (antibody, V domains shown, light constant region not tied to this antibody) VH: QVQLVQSGAEVKKPGASVKVSCKASGYTFTNYGISWVRQRPGQGLEWIGEIYPRSGNTYHNEKFKDRVTMTADTSTSTVYMELSSLRSEDTAVYYCARSMITTRYWYFDVWGKGTTVTVSS VL: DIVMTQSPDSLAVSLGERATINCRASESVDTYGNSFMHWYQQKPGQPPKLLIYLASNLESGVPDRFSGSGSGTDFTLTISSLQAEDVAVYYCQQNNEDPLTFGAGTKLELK , report its IC50 (average), PAD4 citrullination of peptide …, RapidFire MS.
56.5

Param item = hz13-5 (antibody, IgG1, V domains shown, also called clone 13-based hz13-5 antibody; parent hz13-5) VH: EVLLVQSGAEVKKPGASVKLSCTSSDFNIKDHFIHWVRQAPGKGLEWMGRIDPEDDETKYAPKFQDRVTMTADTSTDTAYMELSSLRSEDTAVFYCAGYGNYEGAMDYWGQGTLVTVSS VL: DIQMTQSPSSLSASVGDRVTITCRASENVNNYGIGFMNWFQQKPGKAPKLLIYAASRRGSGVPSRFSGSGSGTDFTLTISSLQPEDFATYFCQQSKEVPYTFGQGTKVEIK ; retrieve measured IC50 (average), PAD4 citrullination of peptide …, RapidFire MS.
48.2

Others:
Query (binder): hz20-13 (antibody, V domains shown, light constant region not tied to this antibody) VH: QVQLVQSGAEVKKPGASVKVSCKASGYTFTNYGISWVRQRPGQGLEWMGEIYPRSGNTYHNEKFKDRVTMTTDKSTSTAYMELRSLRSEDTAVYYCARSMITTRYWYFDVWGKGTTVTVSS VL: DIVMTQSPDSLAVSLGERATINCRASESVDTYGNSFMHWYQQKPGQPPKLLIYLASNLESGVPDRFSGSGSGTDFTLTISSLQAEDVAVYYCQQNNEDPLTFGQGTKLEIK ; field requested: IC50 (average), PAD4 citrullination of peptide …, RapidFire MS
52.6
